# systemUnderTest: Neuropeptide Y receptor type 5 (Homo sapiens)
# Sequence (Q15761 whole entry): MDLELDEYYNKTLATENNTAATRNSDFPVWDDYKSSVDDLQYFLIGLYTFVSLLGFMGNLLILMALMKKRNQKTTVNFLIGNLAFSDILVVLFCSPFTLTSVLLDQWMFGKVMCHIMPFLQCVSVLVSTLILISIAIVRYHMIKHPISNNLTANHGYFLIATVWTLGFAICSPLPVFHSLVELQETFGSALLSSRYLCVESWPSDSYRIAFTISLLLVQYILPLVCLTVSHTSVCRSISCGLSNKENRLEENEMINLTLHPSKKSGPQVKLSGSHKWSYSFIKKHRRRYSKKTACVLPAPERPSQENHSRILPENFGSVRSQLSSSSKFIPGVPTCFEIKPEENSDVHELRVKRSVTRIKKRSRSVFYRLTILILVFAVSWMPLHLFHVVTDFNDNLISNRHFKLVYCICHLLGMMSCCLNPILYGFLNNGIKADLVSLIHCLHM
# experimentNotes: Displacement of [3H]propionyl-pNPY from human neuropeptide Y Y5 receptor in human HEC-1B cells measured after 90 mins by scintillation counting analysis
# Assay type: cell-based, HEC-1B cell line
# testContext: read-out: pKi (converted)
Starred links: 1 amine or outer side, 2 acyl side, 3 side chain; linkers in the order of their positions; H or OH if unused. Residues, ends and D or L forms follow the SMILES beside them. Groups on a side chain read outwards from the residue. *: point of attachment. Suc = O=C(CCC(=O)[*:2])[*:1]; NH(CH2)4NH2 = NCCCCN*; CO = O=C([*:1])[*:2]
readoutName: Ki

>>> result("CC(C)C[C@H](NC(=O)[C@H](CCCNC(=N)N)NC(=O)[C@@H]1CCC(=O)N[C@@H](CCCNC(=N)N)C(=O)NCC(=O)N[C@@H](Cc2ccc(O)cc2)C(=O)N1)C(=O)N[C@@H](CCCNC(=N)N)C(=O)N[C@@H](Cc1ccc(O)cc1)C(N)=O (HELM PEPTIDE1{R.G.Y.E.R.L.R.Y.[am]}$PEPTIDE1,PEPTIDE1,1:R1-4:R3$$$V2.0)")
"> 3.16 µM"

Switching to the query record.
Report Ki for CC(C)C[C@H](NC(=O)[C@H](CCCNC(=N)NC(=O)NCCCCN)NC(=O)[C@H](Cc1ccc(O)cc1)NC(=O)[C@H](CCCCN)NC(=O)CCC(=O)O)C(=O)N[C@@H](CCCNC(=N)N)C(=O)N[C@@H](Cc1ccc(O)cc1)C(N)=O (Suc-KYR([CO-NH(CH2)4NH2])LRY-NH2) tested on Neuropeptide Y receptor type 5 (Homo sapiens).
> 10 µM
